- Measurement Target: M-phase inducer phosphatase 2 (Homo sapiens, UniProt P30305)
- Sequence (P30305 whole entry): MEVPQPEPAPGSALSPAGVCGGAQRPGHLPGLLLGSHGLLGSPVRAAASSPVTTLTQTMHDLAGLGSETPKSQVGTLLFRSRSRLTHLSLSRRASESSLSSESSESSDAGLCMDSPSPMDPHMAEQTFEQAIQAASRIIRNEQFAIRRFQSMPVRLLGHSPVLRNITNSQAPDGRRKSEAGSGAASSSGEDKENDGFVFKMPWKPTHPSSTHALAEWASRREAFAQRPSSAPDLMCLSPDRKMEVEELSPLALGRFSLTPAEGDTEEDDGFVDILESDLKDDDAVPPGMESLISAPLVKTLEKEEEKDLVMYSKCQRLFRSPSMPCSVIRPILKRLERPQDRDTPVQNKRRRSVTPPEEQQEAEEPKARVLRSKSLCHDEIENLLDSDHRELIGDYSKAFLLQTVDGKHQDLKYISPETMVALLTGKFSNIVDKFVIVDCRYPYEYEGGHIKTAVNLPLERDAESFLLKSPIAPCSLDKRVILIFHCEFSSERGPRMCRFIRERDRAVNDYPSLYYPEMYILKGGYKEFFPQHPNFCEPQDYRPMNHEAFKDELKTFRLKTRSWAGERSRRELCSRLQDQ
Property Measured: pIC50
// scale note: pIC50 = -log10(conc_M); give the bare number

In: # pIC50 lookup, item CC(=O)O[C@H]1CC/C(C)=C\CC[C@]2(C)[C@@H]([C@H](C)CCCC(C)C)CC[C@H]2c2ccc(cc2C(=O)O)C1
Out: 5.25

In: # pIC50 lookup, item CC(=O)O[C@H]1CCC(C)CCC[C@]2(C)[C@@H]([C@H](C)CCCC(C)C)CC[C@H]2c2ccc(cc2C(=O)O)C1 (some centres undefined)
Out: 5.11

----------
- Measurement Target: Receptor-type tyrosine-protein phosphatase alpha (Homo sapiens) (UniProt P18433)
- Sequence (P18433 20-802 limits assumed): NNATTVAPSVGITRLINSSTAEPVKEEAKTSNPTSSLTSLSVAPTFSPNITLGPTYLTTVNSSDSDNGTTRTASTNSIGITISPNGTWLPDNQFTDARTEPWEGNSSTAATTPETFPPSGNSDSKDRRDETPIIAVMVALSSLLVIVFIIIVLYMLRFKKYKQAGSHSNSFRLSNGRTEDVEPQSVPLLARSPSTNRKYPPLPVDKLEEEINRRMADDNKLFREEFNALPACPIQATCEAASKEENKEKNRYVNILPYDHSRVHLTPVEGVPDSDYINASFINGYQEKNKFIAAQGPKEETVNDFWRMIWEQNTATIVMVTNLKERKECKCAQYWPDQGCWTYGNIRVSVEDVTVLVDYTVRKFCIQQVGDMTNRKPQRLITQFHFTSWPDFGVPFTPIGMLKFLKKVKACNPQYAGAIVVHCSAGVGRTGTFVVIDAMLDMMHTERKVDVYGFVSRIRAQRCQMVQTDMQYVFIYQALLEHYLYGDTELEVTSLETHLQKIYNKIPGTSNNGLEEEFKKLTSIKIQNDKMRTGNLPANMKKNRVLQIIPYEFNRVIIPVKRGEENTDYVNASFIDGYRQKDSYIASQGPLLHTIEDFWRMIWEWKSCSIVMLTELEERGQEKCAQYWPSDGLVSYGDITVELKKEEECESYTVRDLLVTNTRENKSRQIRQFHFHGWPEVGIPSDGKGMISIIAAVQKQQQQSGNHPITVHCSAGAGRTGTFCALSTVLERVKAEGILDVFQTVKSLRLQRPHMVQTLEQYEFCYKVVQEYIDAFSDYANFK
- Method Description: Selectivity against protein tyrosine phosphatase alpha
The following molecules are shown together with reported Selectivity values.

Consider the worked cases shown below.
>>> reading("C=CC[C@]1(O)CC/C(C)=C\\CC[C@]2(C)[C@@H]([C@H](C)CCCC(C)C)CC[C@H]2c2ccc(cc2C(=O)O)C1")
"> 30 µM"
>>> reading("CC(C)CCC[C@@H](C)[C@H]1CC[C@H]2c3ccc(cc3C(=O)O)CC(=O)CCC(C)CCC[C@]12C (some centres undefined)")
"> 30 µM"
>>> reading("C/C1=C/CC[C@]2(C)[C@@H]([C@H](C)CCCC(C)C)CC[C@H]2c2ccc(cc2C=O)C[C@H](Oc2ccccc2)CC1")
"> 30 µM"
>>> reading("C/C1=C/CC[C@]2(C)[C@@H]([C@H](C)CCCC(C)C)CC[C@H]2c2ccc(cc2C(=O)O)CC(O)CC1 (some centres undefined)")
"> 30 µM"
>>> reading("CC(=O)O[C@@]1(C)CCC(C)CCC[C@]2(C)[C@@H]([C@H](C)CCCC(C)C)CC[C@H]2c2ccc(cc2C)C1 (some centres undefined)")
"> 30 µM"
>>> reading("CC(=O)O[C@H]1CC/C(C)=C\\CC[C@]2(C)[C@@H]([C@H](C)CCCC(C)C)CC[C@H]2c2ccc(cc2C=O)C1")
"> 30 µM"
>>> reading("COC(=O)c1cc2ccc1[C@@H]1CC[C@H]([C@H](C)CCCC(C)C)[C@@]1(C)CC/C=C(/C)CC[C@H](OC(C)=O)C2")
"> 30 µM"
>>> reading("CC(=O)c1cc2ccc1[C@@H]1CC[C@H]([C@H](C)CCCC(C)C)[C@@]1(C)CC/C=C(/C)CC[C@](C)(O)C2")
"> 30 µM"

Let us move to another entry and its Selectivity.
In: # Selectivity lookup, item CC(C)CCC[C@@H](C)[C@H]1CC[C@H]2c3ccc(cc3C(=O)O)CC(O)CCC(C)CCC[C@]12C (some centres undefined)
Out: > 30 µM

----------
- Measurement Target: Serine/threonine-protein phosphatase 2A catalytic subunit alpha isoform (Bos taurus)
- Method Description: Selectivity against protein phosphatase 2A
The following compounds are shown together with reported Selectivity values.

Consider the worked cases shown below.
>>> reading("Cc1cc2ccc1[C@@H]1CC[C@H]([C@H](C)CCCC(C)C)[C@@]1(C)CCCC(C)CC[C@](C)(O)C2 (some centres not stated)")
"> 30 µM"
>>> reading("CC(=O)O[C@@]1(C)CC/C(C)=C\\CC[C@]2(C)[C@@H]([C@H](C)CCCC(C)C)CC[C@H]2c2ccc(cc2C(C)O)C1 (some centres not stated)")
"> 30 µM"
>>> reading("C/C1=C/CC[C@]2(C)[C@@H]([C@H](C)CCCC(C)C)CC[C@H]2c2ccc(cc2C=O)C[C@H](Oc2ccccc2)CC1")
"> 30 µM"
>>> reading("CC(=O)O[C@@]1(C)CCC(C)CCC[C@]2(C)[C@@H]([C@H](C)CCCC(C)C)CC[C@H]2c2ccc(cc2C)C1 (some centres not stated)")
"> 30 µM"
>>> reading("C/C1=C/CC[C@]2(C)[C@@H]([C@H](C)CCCC(C)C)CC[C@H]2c2ccc(cc2C(=O)O)CC(=O)CC1")
"> 30 µM"
>>> reading("CC(=O)O[C@H]1CC/C(C)=C\\CC[C@]2(C)[C@@H]([C@H](C)CCCC(C)C)CC[C@H]2c2ccc(cc2C=O)C1")
"> 30 µM"

Let us move to another entry and its Selectivity.
In: # Selectivity lookup, item CC(=O)O[C@H]1CCC(C)CCC[C@]2(C)[C@@H]([C@H](C)CCCC(C)C)CC[C@H]2c2ccc(cc2C(=O)O)C1 (some centres not stated)
Out: > 30 µM

----------
- Measurement Target: M-phase inducer phosphatase 2 (Homo sapiens)
The following molecules are shown together with reported pIC50 values.
// scale note: pIC50 = -log10(conc_M); give the bare number

Consider the worked cases shown below.
>>> reading("CC(=O)O[C@H]1CC[C@](C)(C2CC[C@@]3(C)C(CC[C@@H]3[C@H](C)CCCC(C)C)[C@@H]2CC(=O)O)C(=O)O1 (some centres not stated)")
5.06
>>> reading("C=CC[C@]1(O)CC/C(C)=C\\CC[C@]2(C)[C@@H]([C@H](C)CCCC(C)C)CC[C@H]2c2ccc(cc2C(=O)O)C1")
5.03
>>> reading("C/C1=C/CC[C@]2(C)[C@@H]([C@H](C)CCCC(C)C)CC[C@H]2c2ccc(cc2C=O)C[C@H](Oc2ccccc2)CC1")
5.46

Let us move to another entry and its pIC50.
In: # pIC50 lookup, item C/C1=C/CC[C@]2(C)[C@@H]([C@H](C)CCCC(C)C)CC[C@H]2c2ccc(cc2C(=O)O)C[C@H](Oc2ccccc2)CC1
Out: 5.15

----------
- Measurement Target: UniProt:P18433
- Method Description: Selectivity against protein tyrosine phosphatase alpha
The following compounds are shown together with reported Selectivity values.

>>> reading("COC(=O)c1cc2ccc1[C@@H]1CC[C@H]([C@H](C)CCCC(C)C)[C@@]1(C)CC/C=C(/C)CCC(=O)C2")
"> 30 µM"

Let us move to another entry and its Selectivity.
In: # Selectivity lookup, item C/C1=C/CC[C@]2(C)[C@@H]([C@H](C)CCCC(C)C)CC[C@H]2c2ccc(cc2CO)C[C@@H](O)CC1
Out: > 30 µM

----------
- Measurement Target: M-phase inducer phosphatase 2 (Homo sapiens)
- Sequence (P30305 whole entry): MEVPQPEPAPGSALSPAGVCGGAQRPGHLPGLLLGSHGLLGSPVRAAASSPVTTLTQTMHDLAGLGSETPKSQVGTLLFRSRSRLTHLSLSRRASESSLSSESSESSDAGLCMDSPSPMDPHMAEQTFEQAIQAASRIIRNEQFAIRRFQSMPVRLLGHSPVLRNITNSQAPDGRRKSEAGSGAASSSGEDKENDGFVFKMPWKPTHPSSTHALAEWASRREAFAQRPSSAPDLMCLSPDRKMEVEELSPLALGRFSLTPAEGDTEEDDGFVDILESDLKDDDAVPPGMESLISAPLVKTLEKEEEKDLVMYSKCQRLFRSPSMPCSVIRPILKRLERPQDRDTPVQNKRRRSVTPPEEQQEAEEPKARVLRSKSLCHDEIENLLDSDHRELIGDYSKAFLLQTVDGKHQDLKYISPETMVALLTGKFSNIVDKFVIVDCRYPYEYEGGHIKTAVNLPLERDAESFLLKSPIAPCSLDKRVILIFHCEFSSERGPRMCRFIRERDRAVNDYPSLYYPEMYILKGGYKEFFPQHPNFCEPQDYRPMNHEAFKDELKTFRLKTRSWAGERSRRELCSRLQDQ
pIC50: −log10 of the molar value.
The following compounds are shown together with reported pIC50 values.

Consider the worked cases shown below.
>>> reading("COC(=O)c1cc2ccc1[C@@H]1CC[C@H]([C@H](C)CCCC(C)C)[C@@]1(C)CC/C=C(/C)CC[C@H](OC(C)=O)C2")
"< 4.52"
>>> reading("C/C1=C/CC[C@]2(C)[C@@H]([C@H](C)CCCC(C)C)CC[C@H]2c2ccc(cc2C(C)O)C[C@@](C)(O)CC1 (stereo partly drawn)")
"< 4.52"

Let us move to another entry and its pIC50.
In: # pIC50 lookup, item COC(=O)c1cc2ccc1[C@@H]1CC[C@H]([C@H](C)CCCC(C)C)[C@@]1(C)CC/C=C(/C)CC[C@H](O)C2
Out: < 4.52
